Property: fold induction at 0.001 µM; scope: individual molecules
TEST_SYSTEM: TR-α (Homo sapiens, UniProt P10827)
PROTOCOL: In vitro TR-α activity (in-house protocol)
Assay type: cell-based
MEASUREMENT_CONTEXT: Conc. 1 nM; read-out: TR-α Fold Induction w.r.t T3(100 nm)
Respond numerically, and do not add a unit to the figure.

The examples below pair each entry with its known result.
molecule="CC(ON=Cc1cc(Cl)c(Oc2ccc(O)c(C(C)C)c2)c(Cl)c1)C(=O)O (stereo not shown) [Example 8]" property_name="fold induction at 0.001 µM" test_value=12.4
molecule="CC(ON=Cc1cc(Br)c(Oc2ccc(O)c(C(=O)c3ccc(Cl)cc3)c2)c(Br)c1)C(=O)O (stereo not shown) [Example 26]" property_name="fold induction at 0.001 µM" test_value=12.1
molecule="O=C(O)CON=Cc1cc(Br)c(Oc2ccc(O)c(C(O)c3ccc(Cl)cc3)c2)c(Br)c1 (stereo not shown) [Example 29]" property_name="fold induction at 0.001 µM" test_value=17.6

Next molecule, please.
Query: Quick one: fold induction at 0.001 µM of CC(ON=Cc1cc(Br)c(Oc2ccc(O)c(-c3ccccc3)c2)c(Br)c1)C(=O)O (stereo not shown) [Example 11] ?
Result: 16.2

---

TEST_SYSTEM: TR-β (Homo sapiens)
Sequence (P10828 whole entry): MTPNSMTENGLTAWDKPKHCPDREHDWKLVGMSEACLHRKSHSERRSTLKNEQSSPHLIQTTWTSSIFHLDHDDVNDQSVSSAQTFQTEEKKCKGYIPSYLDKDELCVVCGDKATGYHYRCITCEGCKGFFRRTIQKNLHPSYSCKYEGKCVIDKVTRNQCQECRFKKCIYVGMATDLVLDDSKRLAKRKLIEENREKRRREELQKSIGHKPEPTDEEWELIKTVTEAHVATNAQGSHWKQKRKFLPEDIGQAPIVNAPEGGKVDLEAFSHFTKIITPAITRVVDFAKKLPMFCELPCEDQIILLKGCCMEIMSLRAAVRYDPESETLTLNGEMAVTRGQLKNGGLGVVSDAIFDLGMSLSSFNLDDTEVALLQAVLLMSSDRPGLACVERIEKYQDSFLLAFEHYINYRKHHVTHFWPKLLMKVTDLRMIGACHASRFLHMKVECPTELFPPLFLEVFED
PROTOCOL: In vitro TR-β activity (in-house protocol)
Type: cell-based
MEASUREMENT_CONTEXT: Conc. 10 nM; read-out: TR-β Fold Induction w.r.t T3(100 nm)
Measured fold induction at 0.01 µM by item

molecule="CCC(C)c1cc(Oc2c(Br)cc(C=NOCC(=O)O)cc2Br)ccc1O (stereo not shown) [Example 6]" test_value=37.1
molecule="CC(ON=Cc1cc(Br)c(Oc2ccc(O)c(C(=O)c3ccc(Cl)cc3)c2)c(Br)c1)C(=O)O (stereo not shown) [Example 26]" test_value=13.2
molecule="O=C(O)CON=Cc1cc(Br)c(Oc2ccc(O)c(C(O)c3ccc(Cl)cc3)c2)c(Br)c1 (stereo not shown) [Example 29]" test_value=12.1

# ---- query molecule ----
Query: Name the recorded fold induction at 0.01 µM for CC(C)(ON=Cc1cc(Br)c(Oc2ccc(O)c(-c3ccccc3)c2)c(Br)c1)C(=O)O [Example 20] .
Result: 14.8

---

TEST_SYSTEM: TR-α (Homo sapiens)
Sequence (P10827 1-410 isoform P10827-2): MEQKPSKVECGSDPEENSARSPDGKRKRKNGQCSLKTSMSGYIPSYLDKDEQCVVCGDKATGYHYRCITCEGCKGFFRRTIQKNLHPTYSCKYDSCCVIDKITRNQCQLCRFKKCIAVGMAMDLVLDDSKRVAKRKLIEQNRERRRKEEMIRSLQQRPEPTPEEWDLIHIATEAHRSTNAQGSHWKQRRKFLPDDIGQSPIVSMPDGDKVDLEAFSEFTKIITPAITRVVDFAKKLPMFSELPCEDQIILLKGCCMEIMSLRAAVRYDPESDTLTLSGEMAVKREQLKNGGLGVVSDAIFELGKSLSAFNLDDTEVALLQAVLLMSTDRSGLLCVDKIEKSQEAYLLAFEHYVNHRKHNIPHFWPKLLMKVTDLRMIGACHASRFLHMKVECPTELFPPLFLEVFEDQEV
PROTOCOL: In vitro TR-α activity (in-house protocol)
PROPERTY_NAME: pEC50
Worth noting: pEC50 values are minus log10 of concentrations stated in mol/L.

Here is how some molecules turned out for pEC50.
molecule="CC(ON=Cc1cc(Br)c(Oc2ccc(O)c(C(=O)c3cccc(Cl)c3)c2)c(Br)c1)C(=O)O (centres unmarked)" test_system="TR-α (Homo sapiens)" property_name=pEC50 test_value=6.84
molecule="CCC(C)c1cc(Oc2c(Br)cc(C=NOC(C)C(=O)O)cc2Br)ccc1O (centres unmarked)" test_system="TR-α (Homo sapiens)" property_name=pEC50 test_value=8.29
molecule="CC(ON=Cc1cc(Br)c(Oc2ccc(O)c(C(C)C)c2)c(Br)c1)C(=O)O (centres unmarked)" test_system="TR-α (Homo sapiens)" property_name=pEC50 test_value=7.60

Query: Please give the measured pEC50 for this molecule: O=C(O)CON=Cc1cc(Br)c(Oc2ccc(O)c(C(O)c3cccc(Cl)c3)c2)c(Br)c1 (centres unmarked)
Result: 5.68

Query: Ok, now `O=C(O)CON=Cc1cc(Br)c(Oc2ccc(O)c(-c3ccccc3)c2)c(Br)c1`
Result: 8.28
